FYI, the data here is from patent US20240408093A1.

Entries and their measured DC50 follow.
Target: GSPT1 (Homo sapiens, UniProt P15170+Q96SW2)
Construct: host or cells: HEK293 LgBiT / GSPT1 HiBiT CRISPR knock-in
Sequence (P15170 whole entry): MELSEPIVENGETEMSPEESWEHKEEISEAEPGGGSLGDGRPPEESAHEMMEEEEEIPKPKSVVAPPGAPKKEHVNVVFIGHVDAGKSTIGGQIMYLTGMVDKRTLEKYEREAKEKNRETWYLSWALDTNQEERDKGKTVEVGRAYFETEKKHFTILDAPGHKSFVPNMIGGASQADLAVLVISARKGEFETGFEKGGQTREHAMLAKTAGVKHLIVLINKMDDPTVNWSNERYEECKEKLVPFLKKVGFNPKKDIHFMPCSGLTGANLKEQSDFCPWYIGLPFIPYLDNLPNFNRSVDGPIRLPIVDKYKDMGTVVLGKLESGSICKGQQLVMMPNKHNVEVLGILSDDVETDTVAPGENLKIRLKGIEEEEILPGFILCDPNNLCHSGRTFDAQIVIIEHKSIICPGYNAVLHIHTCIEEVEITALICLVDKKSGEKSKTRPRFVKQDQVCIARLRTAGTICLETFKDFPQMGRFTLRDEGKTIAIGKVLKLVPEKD
Sequence (Q96SW2 whole entry): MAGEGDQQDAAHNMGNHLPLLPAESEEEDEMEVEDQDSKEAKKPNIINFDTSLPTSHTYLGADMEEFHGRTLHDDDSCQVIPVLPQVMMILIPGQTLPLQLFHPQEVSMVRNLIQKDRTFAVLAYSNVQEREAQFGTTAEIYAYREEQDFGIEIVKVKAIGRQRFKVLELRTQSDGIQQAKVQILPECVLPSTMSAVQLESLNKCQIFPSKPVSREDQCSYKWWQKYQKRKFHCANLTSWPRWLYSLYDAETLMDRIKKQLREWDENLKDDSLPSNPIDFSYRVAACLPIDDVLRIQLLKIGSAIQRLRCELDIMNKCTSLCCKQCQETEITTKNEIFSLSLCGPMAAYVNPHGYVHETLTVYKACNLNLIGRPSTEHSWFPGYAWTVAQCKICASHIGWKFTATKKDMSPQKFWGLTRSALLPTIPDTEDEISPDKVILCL
Sequence (Q16531 whole entry partner): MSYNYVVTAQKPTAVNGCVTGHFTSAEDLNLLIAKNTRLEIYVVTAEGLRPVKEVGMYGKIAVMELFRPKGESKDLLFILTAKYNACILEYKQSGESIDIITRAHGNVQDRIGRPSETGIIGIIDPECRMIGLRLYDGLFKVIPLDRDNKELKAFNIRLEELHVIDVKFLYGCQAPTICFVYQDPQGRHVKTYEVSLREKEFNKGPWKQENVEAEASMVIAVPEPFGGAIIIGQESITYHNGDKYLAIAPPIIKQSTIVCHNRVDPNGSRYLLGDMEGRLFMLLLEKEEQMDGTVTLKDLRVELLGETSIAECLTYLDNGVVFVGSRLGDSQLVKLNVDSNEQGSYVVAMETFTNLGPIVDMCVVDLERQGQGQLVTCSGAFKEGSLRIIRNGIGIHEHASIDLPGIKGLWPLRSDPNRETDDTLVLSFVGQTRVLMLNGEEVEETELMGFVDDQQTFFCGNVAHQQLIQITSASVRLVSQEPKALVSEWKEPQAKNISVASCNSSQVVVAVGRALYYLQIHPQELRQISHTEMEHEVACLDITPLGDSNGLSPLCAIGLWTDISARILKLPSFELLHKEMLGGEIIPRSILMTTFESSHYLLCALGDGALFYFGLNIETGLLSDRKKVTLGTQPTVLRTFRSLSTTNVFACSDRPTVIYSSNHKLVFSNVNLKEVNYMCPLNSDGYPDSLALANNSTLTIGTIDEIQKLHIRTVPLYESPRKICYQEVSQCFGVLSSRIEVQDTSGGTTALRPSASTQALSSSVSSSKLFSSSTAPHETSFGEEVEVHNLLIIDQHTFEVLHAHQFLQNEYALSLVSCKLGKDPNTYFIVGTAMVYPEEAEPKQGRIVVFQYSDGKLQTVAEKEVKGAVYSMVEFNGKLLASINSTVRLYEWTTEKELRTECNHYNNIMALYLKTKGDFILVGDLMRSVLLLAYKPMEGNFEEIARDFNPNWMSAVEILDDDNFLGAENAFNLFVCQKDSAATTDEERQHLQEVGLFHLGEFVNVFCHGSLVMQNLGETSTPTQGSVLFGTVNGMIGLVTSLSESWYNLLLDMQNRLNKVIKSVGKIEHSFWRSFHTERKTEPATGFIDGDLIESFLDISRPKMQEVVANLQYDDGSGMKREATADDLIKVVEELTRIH
Experiment: GSPT1 HiBiT degradation assay
Type: cell-based
Details: HEK293 LgBiT GSPT1 HiBiT cells, 6 hours

As a guide, the following entries are already answered.
Exam item: So what's the measured DC50 for this one? C=C(COc1c(Cl)cccc1NC(=O)NCc1ccc2c(c1)CN(C1CCC(=O)NC1=O)C2=O)C(=O)Nc1cc(Nc2nccc(-c3cn(C)c4ccccc34)n2)c(OC)cc1N(C)CCN(C)C (stereo not drawn)
Marked response: 500 to 2500 nM

Exam item: Suppose we examine the compound C=C(CN(C(=O)NCc1ccc2c(c1)CN(C1CCC(=O)NC1=O)C2=O)c1ccc(C)c(Cl)c1)C(=O)N1CCN(c2nc(OC[C@@H]3CCCN3C)nc3c2CCN(c2cccc4cccc(Cl)c24)C3)C[C@@H]1CC#N (stereo partly drawn) ; what DC50 value has been reported?
Marked response: 50 to 500 nM

Exam item: Param item = C=C(COc1cc(NC(=O)NCc2ccc3c(c2)CN(C2CCC(=O)NC2=O)C3=O)cc(C(F)(F)F)c1)C(=O)N1CCN(c2nc(OC[C@@H]3CCCN3C)nc3c2CCN(c2cccc4cccc(Cl)c24)C3)C[C@@H]1CC#N (stereo partly drawn) ; retrieve measured DC50.
Marked response: 500 to 2500 nM

Exam item: # input compound: C=C(CN(C(=O)NCc1ccc2c(c1)CN(C1CCC(=O)NC1=O)C2=O)c1ccc(OC)c(Cl)c1)C(=O)N1CCC[C@@H](n2nc(-c3ccc(Oc4ccccc4)cc3)c3c(N)ncnc32)C1 (stereo partly drawn) ; wanted: its DC50
Marked response: > 2500 nM

Exam item: Sample C=C(COC(=O)NCCCc1ccc(Cl)cc1NC(=O)NCc1ccc2c(c1)CN(C1CCC(=O)NC1=O)C2=O)C(=O)N1CCN(c2nc(OC[C@@H]3CCCN3C)nc3c2CCN(c2cccc4cccc(Cl)c24)C3)C[C@@H]1CC#N (stereo partly drawn) — what was its DC50?
Marked response: 500 to 2500 nM

Okay, next one:
Exam item: Would you mind telling me what DC50 value was observed for C=C(COc1c(CNC(=O)Nc2ccc(C)c(Cl)c2)ccc2c1CN(C1CCC(=O)NC1=O)C2=O)C(=O)N1CCN(c2nc(OC[C@@H]3CCCN3C)nc3c2CCN(c2cccc4cccc(Cl)c24)C3)C[C@@H]1CC#N (stereo partly drawn) ?
Marked response: 50 to 500 nM

----------
Tested on: GSPT1
Assay: Payload release assay (DC50 readout), GSPT1 degradation in the presence of recombinant target protein
Type: cell-based
Conditions: 3 μM recombinant EGFR T790M L858R; I-series compounds (GSPT1 readout inferred); read-out: DC50 at 3 μM EGFR T790M L858R
Parameter DC50: see the listing below.

Exam item: Param item = C=C(COc1cc(Cl)cc(NC(=O)NCc2ccc3c(c2)CN(C2CCC(=O)NC2=O)C3=O)c1)C(=O)N[C@@H]1CN(c2nc(Nc3cn(C)nc3OC)c3ncn(C)c3n2)C[C@H]1F (some centres unmarked) ; retrieve measured DC50.
Marked response: < 0.25 µM

Exam item: Look up DC50 for this compound: C=C(COc1cc(Cl)cc(NC(=O)NCc2ccc3c(c2)CN(C2CCC(=O)NC2=O)C3=O)c1)C(=O)N1C[C@H](COc2nc(Nc3cnn(C)c3)nc3[nH]cc(Cl)c23)[C@@H](OC)C1 (some centres unmarked)
Marked response: < 0.25 µM

More entries:
Exam item: Need DC50 of C=C(COc1c(Cl)cccc1NC(=O)NCc1ccc2c(c1)CN(C1CCC(=O)NC1=O)C2=O)C(=O)Nc1cc(Nc2nccc(-c3cn(C)c4ccccc34)n2)c(OC)cc1N(C)CCN(C)C (centres unmarked) , thanks.
Marked response: 0.25 to 5 µM

Exam item: Data request, read-out DC50, for C=C(COc1ccc(Cl)cc1NC(=O)NCc1ccc2c(c1)CN(C1CCC(=O)NC1=O)C2=O)C(=O)N[C@@H]1CN(c2nc(Nc3cn(C)nc3OC)c3ncn(C)c3n2)C[C@H]1F (some centres unmarked)
Marked response: < 0.25 µM

Exam item: Which DC50 is reported for this compound? C=C(COc1cc(Cl)cc(NC(=O)NCc2ccc3c(c2)CN(C2CCC(=O)NC2=O)C3=O)c1)C(=O)Nc1cccc(-c2cccc3cnc(Nc4ccc(N5CCN(CCO)CC5)c(F)c4F)nc23)c1 (centres unmarked)
Marked response: < 0.25 µM
